biological target: SARS-CoV-2 S Trimer (SARS-CoV-2, UniProt P0DTC2 16-1213); assay: Octet BLI, IgG, avid
pKd: −log10 of the molar value.

Binder | pKd
A-2 (antibody, V domains shown) VH: EVQLVESGGGLIQPGGSLRLSCAASGFTVSSNYMSWVRQAPGKGLEWVSIIYSGGSTYYADSVKGRFTISRDNSKNTLYLQMNSLRAEDTAVYYCARAPSGEYGDPIYYWGQGTLVTVSS VL: QSVLTQPPSASASLGASVKLTCTLSSGHSTYTIAWHQQQPEKGPRYLMKLNSDGSHSKGDGIPDRFSGSSSGAERYLTISSLQSEDEADYYCQTWGTGNHWVFGGGTKLTVL | 8.94
A-3 (antibody, V domains shown) VH: EVQLLESGPGLVKPSETLSLTCTVSGGSINSRSYYWGWIRQPPGKGLEWIGSIYYSGSTYYNPSLKSRVTISVDTSKNQFSLKLSSVIAADTAVYFCARLEQWELPGGWFDPWGQGTLVTVSS VL: NFMLTQPHSVSESPGKTVTISCTRSSGSIASNYVQWYQQRPGSAPTTVIYEDNQRPSGVPDRFSGSIDISSNSASLTISGLKTEDEADYSCQSSDSSNVVFGGGTKLTVL | 9.02
